Listed here are molecules together with their documented MIC.
System: Staphylococcus aureus
Assay: Antibacterial activity against methicillin-susceptible Staphylococcus aureus ATCC 29213 by broth microdilution method in presence of 5% pulmonary surfactant
Type: functional
Conditions: ATCC 29213, Pulmonary surfactant
Give a bare numeral; the unit µg/mL is implied.

1. CCCCCCCCCC(=O)N[C@@H](Cc1ccc(N)cc1)C(=O)N[C@@H](CC(N)=O)C(=O)N[C@@H](CC(=O)O)C(=O)N[C@@H]1C(=O)NCC(=O)N[C@@H](CCCN)C(=O)N[C@@H](CC(=O)O)C(=O)N[C@H](C)C(=O)N[C@@H](CC(=O)O)C(=O)NCC(=O)N[C@H](CO)C(=O)N[C@@H]([C@@H](C)CC(=O)O)C(=O)N[C@@H](CC(=O)c2ccccc2N)C(=O)O[C@@H]1C; 32
2. CCCCCCCCCC(=O)N[C@@H](Cc1ccccc1OC)C(=O)N[C@@H](CC(N)=O)C(=O)N[C@@H](CC(=O)O)C(=O)N[C@@H]1C(=O)NCC(=O)N[C@@H](CCCN)C(=O)N[C@@H](CC(=O)O)C(=O)N[C@H](C)C(=O)N[C@@H](CC(=O)O)C(=O)NCC(=O)N[C@H](CO)C(=O)N[C@@H]([C@@H](C)CC(=O)O)C(=O)N[C@@H](CC(=O)c2ccccc2N)C(=O)O[C@@H]1C; 4
3. CCCCCCCCCC(=O)N[C@@H](Cc1c[nH]c2ccc(OC)cc12)C(=O)N[C@@H](CC(N)=O)C(=O)N[C@@H](CC(=O)O)C(=O)N[C@@H]1C(=O)NCC(=O)N[C@@H](CCCN)C(=O)N[C@@H](CC(=O)O)C(=O)N[C@H](C)C(=O)N[C@@H](CC(=O)O)C(=O)NCC(=O)N[C@H](CO)C(=O)N[C@@H]([C@@H](C)CC(=O)O)C(=O)N[C@@H](CC(=O)c2ccccc2N)C(=O)O[C@@H]1C; 32

Task: Would you mind telling me what MIC value was observed for CCCCCCCCCC(=O)N[C@@H](Cc1ccsc1)C(=O)N[C@@H](CC(N)=O)C(=O)N[C@@H](CC(=O)O)C(=O)N[C@@H]1C(=O)NCC(=O)N[C@@H](CCCN)C(=O)N[C@@H](CC(=O)O)C(=O)N[C@H](C)C(=O)N[C@@H](CC(=O)O)C(=O)NCC(=O)N[C@H](CO)C(=O)N[C@@H]([C@@H](C)CC(=O)O)C(=O)N[C@@H](CC(=O)c2ccccc2N)C(=O)O[C@@H]1C ?
Result: 16

Task: Likewise for CCCCCCCCCC(=O)N[C@@H](Cc1ccc(OC)cc1OC)C(=O)N[C@@H](CC(N)=O)C(=O)N[C@@H](CC(=O)O)C(=O)N[C@@H]1C(=O)NCC(=O)N[C@@H](CCCN)C(=O)N[C@@H](CC(=O)O)C(=O)N[C@H](C)C(=O)N[C@@H](CC(=O)O)C(=O)NCC(=O)N[C@H](CO)C(=O)N[C@@H]([C@@H](C)CC(=O)O)C(=O)N[C@@H](CC(=O)c2ccccc2N)C(=O)O[C@@H]1C ?
Result: 8

---

Tested on: Staphylococcus aureus
Experiment: Antibacterial activity against methicillin-susceptible Staphylococcus aureus ATCC 29213 by broth microdilution method in presence of 5% pulmonary surfactant
Assay type: functional
Conditions: ATCC 29213, Pulmonary surfactant
Listed here are compounds together with their documented MIC.
Give a bare numeral; the unit µg/mL is implied.

1) CCCCCCCCCC(=O)N[C@@H](Cc1ccc(N2CCCC2)cc1)C(=O)N[C@@H](CC(N)=O)C(=O)N[C@@H](CC(=O)O)C(=O)N[C@@H]1C(=O)NCC(=O)N[C@@H](CCCN)C(=O)N[C@@H](CC(=O)O)C(=O)N[C@H](C)C(=O)N[C@@H](CC(=O)O)C(=O)NCC(=O)N[C@H](CO)C(=O)N[C@@H]([C@@H](C)CC(=O)O)C(=O)N[C@@H](CC(=O)c2ccccc2N)C(=O)O[C@@H]1C; 4

Task: Would you mind telling me what MIC value was observed for CCCCCCCCCC(=O)N[C@@H](Cc1ccc(C)cc1)C(=O)N[C@@H](CC(N)=O)C(=O)N[C@@H](CC(=O)O)C(=O)N[C@@H]1C(=O)NCC(=O)N[C@@H](CCCN)C(=O)N[C@@H](CC(=O)O)C(=O)N[C@H](C)C(=O)N[C@@H](CC(=O)O)C(=O)NCC(=O)N[C@H](CO)C(=O)N[C@@H]([C@@H](C)CC(=O)O)C(=O)N[C@@H](CC(=O)c2ccccc2N)C(=O)O[C@@H]1C ?
Result: 8
